Values were extracted from ChEMBL document CHEMBL5724914.

Assay: The drug is tested on Z-005 corresponding to metagenome with ENA study accession number: PRJEB37062 and ENA sample accession number: ERS12561805 for biotransformation under anaerobic condition. The drug concentrations were measured over 9 timepoints collected between 0 and 24 hours of incubation by liquid-chromatography-coupled mass spectrometry (LC–MS); further: call rule not given here
Conditions: 2 µM
observable: Bacterial Biotransformation

Worked set:
NS(=O)(=O)c1cc2c(cc1Cl)N=C(CSCc1ccccc1)NS2(=O)=O [BENZTHIAZIDE]; Compound NOT metabolized
CN(C)CCC=C1c2ccccc2C=Cc2ccccc21 [CYCLOBENZAPRINE]; Compound NOT metabolized
CCN(CC)CCNC(C(=O)OCCC(C)C)c1ccccc1.Cl.Cl (centres undefined); Compound metabolized
CC(C)NCC(O)COc1ccc(CCOCC2CC2)cc1 (centres undefined) [BETAXOLOL]; Compound NOT metabolized
C[C@@H](CO)NC(=O)[C@@H]1C=C2c3cccc4[nH]cc(c34)C[C@H]2N(C)C1.O=C(O)/C=C\C(=O)O [ERGONOVINE MALEATE]; Compound NOT metabolized

Please list Bacterial Biotransformation recorded for the compound `CN1CC(=O)N2[C@H](c3ccc4c(c3)OCO4)c3[nH]c4ccccc4c3C[C@@H]2C1=O`
Compound NOT metabolized

Please list Bacterial Biotransformation recorded for the compound CC(C)(C(=O)O)c1ccc(C(O)CCCN2CCC(C(O)(c3ccccc3)c3ccccc3)CC2)cc1 (centres undefined) [FEXOFENADINE]
Compound NOT metabolized

Please list Bacterial Biotransformation recorded for the compound CCCCCCOC(=O)/N=C(/N)c1ccc(NCc2nc3cc(C(=O)N(CCC(=O)OCC)c4ccccn4)ccc3n2C)cc1.CS(=O)(=O)O [DABIGATRAN ETEXILATE MESYLATE]
Compound NOT metabolized

Please list Bacterial Biotransformation recorded for the compound NC(CO)(CO)CO.O=C(c1ccccc1)c1ccc2n1CCC2C(=O)O (centres undefined) [KETOROLAC TROMETHAMINE]
Compound metabolized

Please list Bacterial Biotransformation recorded for the compound CCOC(=O)[C@H](CCc1ccccc1)N[C@@H](C)C(=O)N1[C@H](C(=O)O)C[C@H]2CCCC[C@@H]21 [TRANDOLAPRIL]
Compound metabolized

Please list Bacterial Biotransformation recorded for the compound C=CCc1ccccc1OCC(O)CNC(C)C (centres undefined) [ALPRENOLOL]
Compound NOT metabolized

Please list Bacterial Biotransformation recorded for the compound CCN(CC)CCOC(=O)C(Cc1cccc2ccccc12)CC1CCCO1.O=C(O)C(=O)O (centres undefined) [NAFRONYL OXALATE]
Compound metabolized

Please list Bacterial Biotransformation recorded for the compound CN(C)CCc1c[nH]c2ccc(Cn3cncn3)cc12.O=C(O)c1ccccc1 [RIZATRIPTAN BENZOATE]
Compound NOT metabolized

Please list Bacterial Biotransformation recorded for the compound CNCCC(Oc1ccc(C(F)(F)F)cc1)c1ccccc1 (centres undefined) [FLUOXETINE]
Compound NOT metabolized
